- target.or.test.system: GSK3β (Homo sapiens, UniProt P49841)
- Sequence (P49841 whole entry, species assumed): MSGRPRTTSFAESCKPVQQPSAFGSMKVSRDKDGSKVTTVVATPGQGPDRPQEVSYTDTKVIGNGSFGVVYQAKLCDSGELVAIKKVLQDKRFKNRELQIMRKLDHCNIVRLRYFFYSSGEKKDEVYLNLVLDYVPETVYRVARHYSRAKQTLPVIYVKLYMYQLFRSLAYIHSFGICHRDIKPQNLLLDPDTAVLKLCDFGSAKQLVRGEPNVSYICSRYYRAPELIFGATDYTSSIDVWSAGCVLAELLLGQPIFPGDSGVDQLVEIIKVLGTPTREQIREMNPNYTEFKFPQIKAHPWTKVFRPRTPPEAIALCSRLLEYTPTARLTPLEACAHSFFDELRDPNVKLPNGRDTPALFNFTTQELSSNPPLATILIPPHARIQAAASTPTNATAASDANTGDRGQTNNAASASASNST
- method.notes: GSK3β kinase assay (Caliper LabChip3000, fluoresceinated peptide substrate)
- Type: biochemical
measure.name: pIC50
The meaning of pIC50 here: minus log10 of the concentration in molar units.

CC(C)c1ccncc1NC(=O)c1ccnc(NC(=O)C2CC2)c1 :: 7.64
CC(C)(O)c1ccncc1NC(=O)c1ccnc(NC(=O)C2CC2)c1 :: 9.96
O=C(Nc1cncc(-c2cc(F)ccc2F)c1)c1ccnc(NC(=O)C2CC2)c1 :: 8.82

Now look at this entry.
Ask: Please tell me: pIC50 of CC(C)C(=O)Nc1cc(C(=O)Nc2cnccc2-c2ccc(Cl)cc2)ccn1 , system GSK3β (Homo sapiens, UniProt P49841)?
Result: 7.70
